Biological target: Rac GTPase-activating protein 1 (Homo sapiens, UniProt Q9H0H5)
Sequence (Q9H0H5 whole entry): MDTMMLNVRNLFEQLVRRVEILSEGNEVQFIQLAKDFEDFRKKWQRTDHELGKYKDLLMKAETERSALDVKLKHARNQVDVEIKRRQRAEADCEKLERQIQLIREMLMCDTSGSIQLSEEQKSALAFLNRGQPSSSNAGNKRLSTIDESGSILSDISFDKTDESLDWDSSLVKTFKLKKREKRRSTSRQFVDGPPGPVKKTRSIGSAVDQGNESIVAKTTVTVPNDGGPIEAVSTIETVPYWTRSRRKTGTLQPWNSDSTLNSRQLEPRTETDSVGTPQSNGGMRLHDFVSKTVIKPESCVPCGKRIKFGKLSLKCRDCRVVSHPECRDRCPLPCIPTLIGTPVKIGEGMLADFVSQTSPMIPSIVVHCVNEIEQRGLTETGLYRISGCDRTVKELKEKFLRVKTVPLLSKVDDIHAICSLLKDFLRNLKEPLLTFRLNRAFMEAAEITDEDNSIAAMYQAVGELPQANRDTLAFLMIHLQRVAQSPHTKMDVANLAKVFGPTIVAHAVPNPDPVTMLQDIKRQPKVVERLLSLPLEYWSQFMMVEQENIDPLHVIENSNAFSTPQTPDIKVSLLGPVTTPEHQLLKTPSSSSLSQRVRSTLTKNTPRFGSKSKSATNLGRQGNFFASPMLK
Assay: MgcRacGAP GTPase-activating activity inhibitors, confirmation, biochemical, ADP Hunter fluorescence, primary and confirmatory (AID 624330)
Type: functional
Active and inactive are the calls of the source. No rule for the calls is given here.
READOUT LABEL: IC50

According to the records, this molecule CCOc1cc(/C=C2\SC(N)=NC2=O)ccc1O displays IC50 of 47 µM (active)

According to the records, this molecule Cc1cc2c(=Cc3ccc(N(C)C)cc3)c3ccccc3n2[n+]1C displays IC50 of 45.4 µM (active)

According to the records, this molecule O=C(N/N=C/c1ccc(O)cc1)c1cccc(C(F)(F)F)c1 displays IC50 of 83.9 µM (active)
